Target: A2 adenosine receptors (Rattus norvegicus, UniProt P30543)
Sequence (P30543 whole entry): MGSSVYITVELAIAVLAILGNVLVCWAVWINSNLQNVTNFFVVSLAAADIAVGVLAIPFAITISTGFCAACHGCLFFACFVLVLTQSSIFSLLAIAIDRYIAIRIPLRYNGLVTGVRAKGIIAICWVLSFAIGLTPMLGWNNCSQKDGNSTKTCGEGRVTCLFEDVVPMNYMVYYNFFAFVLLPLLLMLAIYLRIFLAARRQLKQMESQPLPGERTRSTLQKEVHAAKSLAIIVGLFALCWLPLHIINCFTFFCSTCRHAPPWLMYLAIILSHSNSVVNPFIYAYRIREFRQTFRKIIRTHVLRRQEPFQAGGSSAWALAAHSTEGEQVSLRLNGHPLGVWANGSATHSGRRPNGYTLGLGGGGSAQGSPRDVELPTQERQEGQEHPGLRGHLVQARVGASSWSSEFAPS
Experiment: Inhibition of binding of [3H]N-ethylcarboxamidoadenosine to A2-adenosine receptors in rat striatal membranes
pKi: −log10 of the molar value.
REPORTED_ENDPOINT: pKi

>>> df
                                   compound  result
0  CCCn1c(=O)c2[nH]c(-c3ccc(OCC(=O)OCC)cc3)nc2n(CCC)c1=S [Compound 30]  < 5.30
1  CCCn1c(=O)c2[nH]c(-c3cccs3)nc2n(CCC)c1=S [Compound 22]  < 5.00
2  CCCn1c(=O)c2[nH]c(-c3ccc(OCC(=O)OCC)cc3)nc2n(CCC)c1=O [Compound 29]  < 5.00

The origin of these recorded values is patent US5453426A.
